Data provenance is patent US20070265273A1.

Known Binding human A2A, % @ 1 μM (column headed Ki (nM)) of a selection of compounds
biological target: human recombinant A2A receptor (Homo sapiens, UniProt P29274); construct: expressed in transfected cells; host or cells: HeLa (stably transfected); assay: Adenosine 2A receptor subtype competition radioligand binding assay; conditions: @ 1 μM; [3H]-ZM241385, Hela cell membranes
Sequence (P29274 whole entry): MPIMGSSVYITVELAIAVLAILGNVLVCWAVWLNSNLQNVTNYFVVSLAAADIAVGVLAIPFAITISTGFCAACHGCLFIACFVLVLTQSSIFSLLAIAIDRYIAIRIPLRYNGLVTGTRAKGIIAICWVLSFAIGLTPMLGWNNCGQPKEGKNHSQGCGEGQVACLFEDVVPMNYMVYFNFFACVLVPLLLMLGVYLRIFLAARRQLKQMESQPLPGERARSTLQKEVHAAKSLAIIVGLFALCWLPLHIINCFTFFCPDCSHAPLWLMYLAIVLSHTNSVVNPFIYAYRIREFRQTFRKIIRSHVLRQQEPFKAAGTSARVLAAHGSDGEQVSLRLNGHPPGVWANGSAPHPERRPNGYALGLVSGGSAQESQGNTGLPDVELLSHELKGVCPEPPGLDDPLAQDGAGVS
READOUT NAME: Binding human A2A, % @ 1 μM (column headed Ki (nM))

c1cncc(Nc2ncc(-c3ccnnc3)c(-c3ccco3)n2)c1 :: 17% @ 1 μM
c1coc(-c2nc(Nc3cncnc3)ncc2-c2ccncn2)c1 :: 15% @ 1 μM
COc1ccc(Nc2ncc(-c3ccncn3)c(-c3ccco3)n2)cn1 :: 14% @ 1 μM
O=c1ccc(Nc2ncc(-c3ccncn3)c(-c3ccco3)n2)c[nH]1 :: 0% @ 1 μM
Fc1ccc(Nc2ncc(-c3ccncn3)c(-c3ccco3)n2)cn1 :: 21% @ 1 μM
[O-][n+]1cccc(Nc2ncc(-c3ccncn3)c(-c3ccco3)n2)c1 :: 7% @ 1 μM

----------
Biological target: human recombinant A3 receptor (Homo sapiens, UniProt P0DMS8)
Construct: expressed in transfected cells; host or cells: HeLa (stably transfected)
Sequence (P0DMS8 whole entry): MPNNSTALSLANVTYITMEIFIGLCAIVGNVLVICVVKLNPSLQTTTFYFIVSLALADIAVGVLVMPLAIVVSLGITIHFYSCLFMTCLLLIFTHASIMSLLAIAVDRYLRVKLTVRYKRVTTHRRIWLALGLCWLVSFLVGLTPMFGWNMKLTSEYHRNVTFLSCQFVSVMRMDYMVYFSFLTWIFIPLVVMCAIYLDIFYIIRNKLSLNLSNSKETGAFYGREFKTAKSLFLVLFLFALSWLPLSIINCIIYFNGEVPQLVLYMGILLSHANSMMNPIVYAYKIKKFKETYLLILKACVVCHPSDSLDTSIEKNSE
Assay: Adenosine 3 receptor subtype competition radioligand binding assay
Conditions: [3H]-NECA, Hela cell membranes; read-out: Binding human A3 Ki
Protocol: Adenosine 3 Receptor Subtype Competition Radioligand Binding Assay Membranes were prepared from Hela cells stably transfected with the human recombinant A3 receptor. […] Finally, the pellet was resuspended in 100-500 μl of storage buffer (Tris-HCl 50 mM pH 7.4) where the total protein content was determined. […]
Label yes when Ki is strictly below 0.8 µM; at or above that, label no.

c1cncc(Nc2ncc(-c3ccncn3)c(-c3ccco3)n2)c1 [Example 1] :: no
c1cncc(Nc2ncc(-c3ccnnc3)c(-c3ccco3)n2)c1 [Example 11] :: yes
O=c1ccc(Nc2ncc(-c3ccncn3)c(-c3ccco3)n2)c[nH]1 [Example 21] :: no
c1coc(-c2nc(Nc3cncnc3)ncc2-c2ccncn2)c1 [Example 13] :: no
[O-][n+]1cccc(Nc2ncc(-c3ccncn3)c(-c3ccco3)n2)c1 [Example 12] :: no
c1cncc(Nc2ncc(-c3ccncn3)c(-c3cccs3)n2)c1 [Example 6] :: yes
Fc1ccc(Nc2ncc(-c3ccncn3)c(-c3ccco3)n2)cn1 [Example 4] :: no

----------
Molecular target: human recombinant A1 receptors (Homo sapiens, UniProt P30542)
Construct: host or cells: CHO-K1
Sequence (P30542 1-326): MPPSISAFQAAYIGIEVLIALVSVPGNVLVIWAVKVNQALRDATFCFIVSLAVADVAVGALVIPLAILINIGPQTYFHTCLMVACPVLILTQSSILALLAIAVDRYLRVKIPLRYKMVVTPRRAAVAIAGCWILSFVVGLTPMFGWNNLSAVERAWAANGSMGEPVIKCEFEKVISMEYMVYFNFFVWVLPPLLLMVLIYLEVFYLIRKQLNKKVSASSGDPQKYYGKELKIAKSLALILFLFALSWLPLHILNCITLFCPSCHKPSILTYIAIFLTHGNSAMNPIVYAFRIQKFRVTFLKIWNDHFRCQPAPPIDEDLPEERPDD
Assay: Adenosine 1 receptor subtype competition radioligand binding assay
Details: 1 h, [3H]-DPCPX, CHO-K1 membranes, read-out: Binding human A1, % @ 1 μM (column headed Ki (nM))
READOUT NAME: inhibition at 1 µM (%)

[O-][n+]1cccc(Nc2ncc(-c3ccncn3)c(-c3ccco3)n2)c1 :: 4
c1cncc(Nc2ncc(-c3ccnnc3)c(-c3ccco3)n2)c1 :: 23
c1coc(-c2nc(Nc3cncnc3)ncc2-c2ccncn2)c1 :: 3
Fc1ccc(Nc2ncc(-c3ccncn3)c(-c3ccco3)n2)cn1 :: 30
c1cncc(Nc2ncc(-c3ccncn3)c(-c3ccco3)n2)c1 :: 14
COc1ccc(Nc2ncc(-c3ccncn3)c(-c3ccco3)n2)cn1 :: 5
c1cncc(Nc2ncc(-c3ccncn3)c(-c3cccs3)n2)c1 :: 31
O=c1ccc(Nc2ncc(-c3ccncn3)c(-c3ccco3)n2)c[nH]1 :: 0
